Can you tell me pEC50 for the items I'm about to list?
Target: UniProt Q13616
Experiment: E3 (CUL1) inhibition (Table 1)
Give bare numbers, as −log10 of the molar value.

Example molecules with recorded pEC50:
Please give the documented pEC50 of N#Cc1cccc(-n2cc(-c3c(C(F)(F)F)oc4c(O)c(O)ccc4c3=O)cn2)c1 5.05

Please give the documented pEC50 of O=c1c(-c2cnn(Cc3ccccc3Cl)c2)c(C(F)(F)F)oc2c(O)c(O)ccc12 5.09

Please give the documented pEC50 of COc1ccc2c(=O)c(-c3cnn(Cc4cc(F)ccc4C(F)(F)F)c3)c(C(F)(F)F)oc2c1OC 4.18

Please give the documented pEC50 of COc1ccc2c(=O)c(-c3cnn(Cc4cccc(Cl)c4)c3)c(C(F)(F)F)oc2c1OC 4.09

Please give the documented pEC50 of CCCCn1cc(-c2c(C(F)(F)F)oc3c(OC)c(OC)ccc3c2=O)cn1 4.02

Dear colleague, could you please provide pEC50 for the molecules listed below?
1. CCn1cc(-c2c(C(F)(F)F)oc3c(O)c(O)ccc3c2=O)cn1
2. O=c1c(-c2cnn(-c3cccc(Cl)c3)c2)c(C(F)(F)F)oc2c(O)c(O)ccc12
3. CC(=O)Oc1ccc2c(=O)cc(C(F)(F)F)oc2c1OC(C)=O

1: 5.22; 2: 4.89; 3: 4.49

---

Molecular target: E3 (CUL1) (Homo sapiens (Human))
Test: E3 (CUL1) inhibition (Table 1)
pEC50: −log10 of the molar value.
OUTCOME MEASURE: pEC50

Example molecules with recorded pEC50:
GET pEC50 where system = E3 (CUL1) (Homo sapiens (Human)) and item = COc1ccc2c(=O)c(-c3cnn(Cc4ccccc4F)c3)c(C(F)(F)F)oc2c1OC [MSSM-RJD-MM-016] < 4.00

GET pEC50 where system = E3 (CUL1) (Homo sapiens (Human)) and item = COc1ccc2c(=O)c(-c3cnn(Cc4ccc(C(F)(F)F)cc4)c3)c(C(F)(F)F)oc2c1OC [MSSM-RJD-MM-011] < 4.00

GET pEC50 where system = E3 (CUL1) (Homo sapiens (Human)) and item = COc1cccc(Cn2cc(-c3c(C(F)(F)F)oc4c(OC)c(OC)ccc4c3=O)cn2)c1 [MSSM-RJD-MM-018] < 4.00

Next molecule, pEC50 to be filled in.
GET pEC50 where system = E3 (CUL1) (Homo sapiens (Human)) and item = COc1ccc2c(=O)c(-c3cnn(Cc4ccc(F)cc4)c3)c(C(F)(F)F)oc2c1OC [MSSM-RJD-MM-010] < 4.00

---

Can you tell me pEC50 for the items I'm about to list?
Target: E3 (CUL4) (Homo sapiens (Human), UniProt Q13619)
Sequence (Q13619 whole entry): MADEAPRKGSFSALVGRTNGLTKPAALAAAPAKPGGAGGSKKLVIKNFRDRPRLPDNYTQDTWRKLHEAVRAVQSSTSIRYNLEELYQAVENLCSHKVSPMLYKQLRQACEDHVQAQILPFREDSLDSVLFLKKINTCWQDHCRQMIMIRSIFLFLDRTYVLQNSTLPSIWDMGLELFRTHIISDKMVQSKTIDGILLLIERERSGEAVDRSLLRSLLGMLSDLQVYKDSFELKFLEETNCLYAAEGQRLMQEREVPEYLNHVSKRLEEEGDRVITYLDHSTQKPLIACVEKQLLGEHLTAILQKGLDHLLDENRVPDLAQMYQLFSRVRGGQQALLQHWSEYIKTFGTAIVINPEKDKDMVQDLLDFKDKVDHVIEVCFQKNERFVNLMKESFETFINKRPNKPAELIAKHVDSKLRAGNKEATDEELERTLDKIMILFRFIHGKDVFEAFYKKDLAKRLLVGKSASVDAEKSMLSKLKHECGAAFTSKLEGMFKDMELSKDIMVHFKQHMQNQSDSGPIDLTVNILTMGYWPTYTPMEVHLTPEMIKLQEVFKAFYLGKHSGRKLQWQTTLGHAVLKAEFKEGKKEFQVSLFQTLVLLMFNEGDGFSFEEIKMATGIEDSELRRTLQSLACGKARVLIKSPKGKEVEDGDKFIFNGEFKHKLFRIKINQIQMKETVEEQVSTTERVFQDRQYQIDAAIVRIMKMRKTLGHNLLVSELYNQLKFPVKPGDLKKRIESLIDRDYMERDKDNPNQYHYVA
Sequence (P62877 whole entry partner): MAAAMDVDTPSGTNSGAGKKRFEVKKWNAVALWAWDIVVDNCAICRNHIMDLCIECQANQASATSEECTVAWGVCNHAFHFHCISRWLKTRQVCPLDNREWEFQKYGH
Assay: E3 (CUL4) inhibition (Table 1)
pEC50: −log10 of the molar value.

Please give the documented pEC50 of COc1ccc2c(=O)c(-c3cnn(Cc4ccccc4F)c3)c(C(F)(F)F)oc2c1OC < 5.00

Please give the documented pEC50 of N#Cc1cccc(-n2cc(-c3c(C(F)(F)F)oc4c(O)c(O)ccc4c3=O)cn2)c1 < 4.85

Please give the documented pEC50 of O=c1c(-c2cnn(Cc3cccc(Cl)c3)c2)c(C(F)(F)F)oc2c(O)c(O)ccc12 < 5.00

Please give the documented pEC50 of O=c1c(-c2cnn(Cc3cccc(F)c3)c2)c(C(F)(F)F)oc2c(O)c(O)ccc12 < 5.00

Please give the documented pEC50 of Nc1cccc(-n2cc(-c3c(C(F)(F)F)oc4c(O)c(O)ccc4c3=O)cn2)c1 < 4.85

Dear colleague, could you please provide pEC50 for the compounds listed below?
1. O=c1c(-c2cnn(-c3ccc(F)cc3)c2)c(C(F)(F)F)oc2c(O)c(O)ccc12
2. O=c1c(-c2cnn(Cc3ccc(F)cc3)c2)c(C(F)(F)F)oc2c(O)c(O)ccc12
3. COc1ccc2c(=O)c(-c3cnn(C(C)C)c3)c(C(F)(F)F)oc2c1OC
4. COc1ccc2c(=O)c(-c3cnn(Cc4cccc(C)c4)c3)c(C(F)(F)F)oc2c1OC
5. Cc1cccc(Cn2cc(-c3c(C(F)(F)F)oc4c(O)c(O)ccc4c3=O)cn2)c1
6. COc1ccc2c(=O)c(-c3cnn(Cc4cccc(C(F)(F)F)c4Cl)c3)c(C(F)(F)F)oc2c1OC
7. CCCn1cc(-c2c(C(F)(F)F)oc3c(O)c(O)ccc3c2=O)cn1

["< 4.85", "< 4.52", "< 5.00", "< 5.00", "< 5.00", "< 5.00", "< 5.00"]

Please give the documented pEC50 of O=c1c(-c2cnn(Cc3ccc(C(F)(F)F)cc3)c2)c(C(F)(F)F)oc2c(O)c(O)ccc12 ~5.00

---

Biological target: E3 (CUL1) (Homo sapiens (Human), UniProt Q13616)
Sequence (Q13616 whole entry): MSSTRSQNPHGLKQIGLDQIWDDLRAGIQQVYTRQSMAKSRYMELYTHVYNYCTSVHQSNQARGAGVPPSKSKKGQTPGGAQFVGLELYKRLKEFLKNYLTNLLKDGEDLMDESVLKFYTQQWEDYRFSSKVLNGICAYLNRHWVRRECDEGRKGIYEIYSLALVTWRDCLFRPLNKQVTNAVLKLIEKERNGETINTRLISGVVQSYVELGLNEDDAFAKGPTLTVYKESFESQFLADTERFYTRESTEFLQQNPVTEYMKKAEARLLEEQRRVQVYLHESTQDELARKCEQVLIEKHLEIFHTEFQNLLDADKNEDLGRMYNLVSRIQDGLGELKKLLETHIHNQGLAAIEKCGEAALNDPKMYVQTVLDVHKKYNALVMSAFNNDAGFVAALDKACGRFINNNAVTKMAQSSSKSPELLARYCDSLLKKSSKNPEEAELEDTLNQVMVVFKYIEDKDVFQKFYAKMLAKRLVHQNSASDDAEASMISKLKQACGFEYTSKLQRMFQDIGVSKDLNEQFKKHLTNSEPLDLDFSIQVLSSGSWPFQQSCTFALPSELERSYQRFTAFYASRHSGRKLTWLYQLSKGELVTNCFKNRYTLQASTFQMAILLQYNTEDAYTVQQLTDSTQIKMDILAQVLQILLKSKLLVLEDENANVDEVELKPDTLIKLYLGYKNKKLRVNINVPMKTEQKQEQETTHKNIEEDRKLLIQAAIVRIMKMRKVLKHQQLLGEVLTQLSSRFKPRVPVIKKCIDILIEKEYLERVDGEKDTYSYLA
Sequence (P62877 whole entry partner): as the sequence (P62877 whole entry partner) above
Test: E3 (CUL1) inhibition (Table 1)
OUTCOME MEASURE: EC50

GET EC50 where system = E3 (CUL1) (Homo sapiens (Human), UniProt Q13616) and item = COc1ccc2c(=O)c(-c3cnn(Cc4ccc(Cl)cc4)c3)c(C(F)(F)F)oc2c1OC > 100 µM

Dear colleague, could you please provide EC50 for the molecules listed below?
1. COc1ccc2c(=O)c(-c3cnn(C(C)C)c3)c(C(F)(F)F)oc2c1OC
2. CCn1cc(-c2c(C(F)(F)F)oc3c(OC)c(OC)ccc3c2=O)cn1
3. COc1ccc2c(=O)c(-c3cnn(Cc4ccccc4Cl)c3)c(C(F)(F)F)oc2c1OC
4. CCCn1cc(-c2c(C(F)(F)F)oc3c(OC)c(OC)ccc3c2=O)cn1

1. > 100 µM
2. > 100 µM
3. > 100 µM
4. > 100 µM
